test protocol: Inhibition of [125I]FIAU uptake in RG2TK+ cells overexpressing HSV1-tk gene
Format: functional, cell-based
stated conditions: Rattus norvegicus
Checkbox rule: IC50 lower than 30 µM = rule met; IC50 not lower than 30 µM = rule not met.

{"molecular string": "O=c1[nH]c(=O)n([C@@H]2O[C@H](CO)[C@@H](O)[C@@H]2F)cc1I", "group label": "rule met"}
{"molecular string": "O=c1[nH]c(=O)n([C@H]2C[C@H](O)[C@@H](CO)O2)cc1CCCCF", "group label": "rule not met"}
{"molecular string": "O=c1[nH]c(=O)n([C@@H]2O[C@H](CO)[C@@H](O)[C@@H]2F)cc1CCCCCF", "group label": "rule met"}
{"molecular string": "O=c1[nH]c(=O)n([C@H]2C[C@H](O)[C@@H](CO)O2)cc1CCCCCF", "group label": "rule not met"}
{"molecular string": "O=c1[nH]c(=O)n([C@@H]2O[C@H](CO)[C@@H](O)[C@@H]2F)cc1CCCF", "group label": "rule not met"}

Q. Would you kindly verify if IC50 of O=c1[nH]c(=O)n([C@H]2C[C@H](O)[C@@H](CO)O2)cc1CCCF is strictly less than 30 µM?
A. rule met

Q. Do the same for O=c1[nH]c(=O)n([C@@H]2O[C@H](CO)[C@@H](O)[C@@H]2F)cc1CCCCF please
A. rule met
